src = patent US20130116304A1

- TESTED ON: alkylglycerol monooxygenase (TMEM195) (Homo sapiens, UniProt Q6ZNB7)
- Construct: host or cells: CHO-K1 cells, transiently transfected with ExGen 500; pellets opened in water with 0.5% CHAPS
- Sequence (Q6ZNB7 1-445): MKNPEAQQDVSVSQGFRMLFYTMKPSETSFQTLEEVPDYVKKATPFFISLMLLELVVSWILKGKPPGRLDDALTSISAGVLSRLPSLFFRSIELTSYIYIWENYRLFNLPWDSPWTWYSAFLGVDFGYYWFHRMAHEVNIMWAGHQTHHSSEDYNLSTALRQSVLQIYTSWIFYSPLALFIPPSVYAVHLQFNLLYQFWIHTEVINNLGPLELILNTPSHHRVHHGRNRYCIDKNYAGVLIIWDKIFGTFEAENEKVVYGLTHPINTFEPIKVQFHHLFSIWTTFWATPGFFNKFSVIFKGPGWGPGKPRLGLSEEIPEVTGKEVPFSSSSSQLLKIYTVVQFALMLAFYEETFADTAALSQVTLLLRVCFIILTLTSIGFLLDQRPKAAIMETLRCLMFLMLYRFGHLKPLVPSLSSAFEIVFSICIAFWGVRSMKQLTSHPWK
- TEST METHOD NOTES: Alkylglycerol monooxygenase activity generated in CHO cells by transfection of TMEM195 and ALDH3A2 (pyrenedecanoic acid, HPLC with fluorescence detection)
- Assay type: biochemical
- ASSAY SETUP: activity generated in CHO cells by transfection; mean±SEM; read-out: 50% inhibition of alkylglycerol monooxygenase activity
PARAMETER MEASURED: IC50 (µM)
Please reply with the bare figure in µM and do not write the unit itself.

Ask: Quick check: IC50 of c1cnc2c(c1)ccc1cccnc12 [1,10-Phenanthroline] ?
Result: 1.39
